- Target Desc: KRas G12D mutant protein (Homo sapiens (Human), UniProt P01116, G12D)
- Sequence (P01116-2 other isoform, or with tags, fused parts or gaps G12D): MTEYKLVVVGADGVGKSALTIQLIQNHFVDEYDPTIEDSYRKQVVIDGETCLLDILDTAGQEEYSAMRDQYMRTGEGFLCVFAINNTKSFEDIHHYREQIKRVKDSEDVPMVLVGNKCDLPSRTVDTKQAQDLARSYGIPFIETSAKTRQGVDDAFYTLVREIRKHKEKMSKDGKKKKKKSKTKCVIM
- Run Description: Ras GTP binding domain inhibition assay (labeled GTP)
- Condition Label: 20 μM; read-out: KRas G12D % Inh.
- Method: The following method was developed as specific assay for KRas G12D mutant protein. Buffer-I: • 50 mM Tris, pH 7.5 • 150 mM NaCl (optional) • 1 mM MgCl2 • 1 mM DTT. • KRas G12D mutant protein was expressed as a His-tagged protein. […]
Attribute Measured: inhibition at 20 µM

1) O=C(Nc1nc(-c2ccccn2)cs1)c1ccncc1 [drawing 2578] | 51 to 75%
2) NC(=O)C1(CNc2nc(-c3ccccn3)nc3c2CCC3)CCCC1 [drawing 2608] | 51 to 75%
3) COCC(C)Nc1nc(-c2ccccn2)nc2sc(C)c(-c3ccccc3)c12 (stereo not drawn) [drawing 2604] | 51 to 75%
4) COc1ccc(CCC(=O)N2CCCc3c(O)nc(-c4ccccn4)nc32)cc1 [drawing 2640] | 25 to 50%
5) COC(=O)c1cccc(CN2CCC(CSc3ccccc3)C2)c1C#N (stereo not drawn) [drawing 2611] | 1 to 25%
6) O=c1nc(-c2ccccn2)[nH]c2scc(-c3ccccc3Cl)c12 [drawing 2585] | 51 to 75%
7) COc1ccc(C(=O)Nc2nc(-c3ccccn3)cs2)cn1 [drawing 2581] | 76 to 100%
8) COc1ccc(CCC(=O)Nc2nnc(-c3ccccn3)[nH]2)cc1 [drawing 2469] | 25 to 50%
9) COc1ccc(OCc2nc(CNCCc3nnc4n3CCC4)cs2)cc1 [drawing 2565] | 51 to 75%

###

# maps each entry to its inhibition at 20 µM
- Target Desc: KRas G12C/Q61H double mutant (Homo sapiens (Human), UniProt P01116, G12C/Q61H)
- Sequence (P01116-2 other isoform, or with tags, fused parts or gaps G12C/Q61H): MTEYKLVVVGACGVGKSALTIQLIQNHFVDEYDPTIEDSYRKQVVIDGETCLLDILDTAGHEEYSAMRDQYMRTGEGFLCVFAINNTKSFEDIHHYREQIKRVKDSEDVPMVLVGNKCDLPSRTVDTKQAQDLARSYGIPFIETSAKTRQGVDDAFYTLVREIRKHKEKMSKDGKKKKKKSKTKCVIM
- Run Description: Ras GTP binding domain inhibition assay (labeled GTP)
- Condition Label: 20 μM compound; KRas G12C/Q61H double mutant; read-out: % Inhibition at 20 μM of K-Ras mutant and wild-type protein, KRas G12C Q61H
Attribute Measured: inhibition at 20 µM

1) Nc1nc(O)c2sc(-c3cccc(C(=O)NCc4ncc[nH]4)c3)cc2n1 [drawing 3545] | 1 to 25%
2) COCCNc1nc(-c2cn(C)cn2)nc2sc(-c3ccncc3)c(-c3ccccc3)c12 [drawing 3530] | 51 to 75%
3) Nc1nc(O)c2sc(-c3cccc(C(=O)NCc4cccc(O)n4)c3)cc2n1 [drawing 3546] | 1 to 25%
4) COCC(C)Nc1nc(-c2ccccn2)nc2sc(-c3ccncc3)c(-c3ccccc3)c12 (stereo not shown) [drawing 3541] | 25 to 50%

###

- Test system: MIA-PACA2 pancreatic cancer cell lines
- Run Description: Cell proliferation assay (CellTiter 96 AQueous One)
- Format: cell-based
- Condition Label: Homo sapiens, MIA PaCa-2; MIA-PACA2, same assay as the % inhibition (standard conditions)
Attribute Measured: IC50

1) O=C(CN1CCN(c2nc(-c3ccccn3)nc3sc(-c4ccccc4)cc23)CC1)N1CCCC1 [drawing 1606] | > 1000 nM
2) COc1cccc(N2CCN(C(=O)c3csc4c(O)nc(-c5ccccn5)nc34)CC2)c1 [drawing 1632] | 100 to 500 nM

###

- Target Desc: KRas G12D/Q61H double mutant (Homo sapiens (Human), UniProt P01116, G12D/Q61H)
- Sequence (P01116-2 other isoform, or with tags, fused parts or gaps G12D/Q61H): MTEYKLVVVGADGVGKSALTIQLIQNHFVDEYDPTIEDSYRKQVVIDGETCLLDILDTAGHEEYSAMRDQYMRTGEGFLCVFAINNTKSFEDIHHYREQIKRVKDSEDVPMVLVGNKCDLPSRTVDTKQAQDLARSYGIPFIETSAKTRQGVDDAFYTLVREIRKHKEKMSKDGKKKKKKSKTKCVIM
- Run Description: Ras GTP binding domain inhibition assay (labeled GTP)
- Condition Label: 20 μM compound; KRas G12D/Q61H double mutant; read-out: % Inhibition at 20 μM of K-Ras mutant and wild-type protein, KRas G12D Q61H
Attribute Measured: inhibition at 20 µM

1. CCC(C)Oc1cc(-c2nc(C3CCCN3C(=O)OC(C)(C)C)no2)ccn1 (centres unmarked) | 25 to 50%
2. COCCNc1nc(-c2ccccn2)nc(-c2cccc(OCCN(C)C)c2)c1Oc1ccccc1 [drawing 3529] | 1 to 25%
3. Cc1nn(C(C)C)cc1-c1csc2c(O)nc(-c3ccccn3)nc12 [drawing 3506] | 51 to 75%
4. COc1cnc(-c2nccn2C)nc1O [drawing 3513] | 76 to 100%
5. CC(=O)c1cc(C(=O)Nc2cccc(COC3CCCCC3)c2)n(C)c1 | 25 to 50%
6. COc1ccc(-c2csc3nc(C)nc(N(C)Cc4ccco4)c23)cc1OC | 25 to 50%
7. CCCOc1ccc2ccccc2c1CN(C)C(=O)C1CCCN(c2ncccn2)C1 (centres unmarked) | 25 to 50%
8. CC(C)n1cnnc1CNCc1ccc(OCc2ccccc2)cc1OCc1ccccc1 | 1 to 25%
9. C=CCN(Cc1ccc(Cl)s1)C(=O)COC(=O)c1cc(OC)ccc1O | 25 to 50%
10. COc1cnc(CNC(=O)c2cc3nc(-c4ccccn4)nc(O)c3s2)[nH]c1=O [drawing 3521] | 25 to 50%
11. CCCCOCCN(C(=O)c1ccn(-c2ccccc2)n1)c1ccccc1Br | 25 to 50%
12. Cc1c(C(=O)N2CCN(c3ccccc3)CC2)sc2c(O)nc(-c3ccccn3)nc12 [drawing 3483] | 51 to 75%
13. Cc1nn(Cc2ccccc2Cl)c(C)c1CN(C)S(=O)(=O)c1cccs1 | 1 to 25%
14. C=CCn1c(C)cc(C(=O)CSc2nc3ccccc3c(=O)n2C(C)COC)c1C (centres unmarked) | 25 to 50%
15. CCCn1c(CNc2cccc(Cl)c2OCCOCC)nc2cc(S(=O)(=O)N(C)C)ccc21 | 25 to 50%
16. CCOC(=O)c1c(-c2ccc(Br)cc2)csc1/N=C/N(C)C | 25 to 50%
17. CCc1nc2ccccc2c(C(=O)OCC(=O)c2cc(C)n(CCOC)c2C)c1C | 1 to 25%
18. Cc1cc(C)c(S(=O)(=O)Nc2ccc(Oc3ccccc3C#N)nc2)c(C)c1 | 25 to 50%
19. Cc1cc(C(=O)COC(=O)c2ccccc2[S+](C)[O-])c(C)n1CCC1=CCCCC1 (centres unmarked) | 1 to 25%
20. O=C(Cc1ccc2c(c1)OCCO2)Nc1nc(-c2ccccn2)cs1 [drawing 3246] | 1 to 25%

###

- Target Desc: KRas G12D/Q61H double mutant (Homo sapiens (Human), UniProt P01116, G12D/Q61H)
- Run Description: Ras GTP binding domain inhibition assay (labeled GTP)
- Condition Label: 20 μM compound; read-out: % Inhibition at 20 μM KRas G12D Q61H
# maps each entry to its inhibition at 20 µM
Attribute Measured: inhibition at 20 µM

1) COc1ccc2c(c1)CCCN2C(=O)CN(Cc1ccco1)S(=O)(=O)c1ccc(C)cc1 | 25 to 50%
2) COc1cc2c(cc1OC)CCN(C(=O)c1csc3c(O)nc(-c4ccccn4)nc13)CC2 [drawing 2691] | 51 to 75%
3) COc1ccc(CN2CCN(C(=O)c3csc4c(O)nc(-c5ccccn5)nc34)CC2)cc1 [drawing 2725] | 25 to 50%
4) O=C(NCc1ccccn1)c1csc(-c2ccc(Cl)cc2)n1 | 1 to 25%
5) Cc1cccc(OCCn2c(CN3CCCCC3)nc3ccccc32)c1C | 1 to 25%
6) COCCn1c(SCc2csc(-c3ccccc3)n2)nc2ccccc21 | 25 to 50%
7) O=C(Nc1nnc(-c2ccccn2)[nH]1)c1ccncc1 | 25 to 50%
8) O=C(c1csc2c(O)nc(-c3ccccn3)nc12)N(CCO)CCOCCO [drawing 2687] | 76 to 100%
9) COc1ccc(N2CCN(C(=O)c3csc4c(O)nc(-c5ccccn5)nc34)CC2)cc1O [drawing 2802] | 1 to 25%
10) CCc1cc2c(=O)[nH]c(-c3ccccn3)nc2s1 | 25 to 50%
11) O=S(=O)(c1ccccc1)N1CCCc2c(O)nc(-c3ccccn3)nc21 [drawing 2652] | 1 to 25%
12) Cc1nn(C)c(C)c1CC(=O)Nc1nnc(-c2ccccn2)[nH]1 | 25 to 50%
13) Cc1cc(C2CCCN2c2cc(C(F)(F)F)nc3ncnn23)no1 (centres unmarked) | 1 to 25%
14) Cc1nc(CNc2ccccc2Oc2cccc(F)c2)no1 | 1 to 25%
15) Cc1cc(C)n(-c2ccc(C(=O)Nc3nnc(-c4ccccn4)[nH]3)cn2)n1 | 25 to 50%
16) Fc1ccc(OCc2nnc(SCCCc3ccccc3)o2)cc1 | 25 to 50%
17) Cc1csc(C2CN(Cc3ccn(C)c(=O)c3)CCO2)n1 (centres unmarked) | 1 to 25%
18) COCCCC1CCN(C(=O)c2csc3c(O)nc(-c4ccccn4)nc23)CC1 [drawing 2677] | 51 to 75%
19) CC(C(N)=O)N1CCOC(c2nc(-c3ccccc3)cs2)C1 (centres unmarked) | 25 to 50%
20) CN(CCc1ccncc1)C(=O)c1csc2c(O)nc(-c3ccccn3)nc12 [drawing 2688] | 25 to 50%
21) CN(CCc1cccc(C#N)c1)C(=O)c1csc2nc(-c3ccccn3)nc(N3CCOCC3)c12 [drawing 2788] | 1 to 25%
22) Cc1ccc(-c2c(C)sc3nc(-c4cnccn4)[nH]c(=O)c23)cc1 | 25 to 50%
23) O=C(c1csc2c(O)nc(-c3ccccn3)nc12)N1CCOC(c2cccc(Cl)c2)C1 (centres unmarked) [drawing 2770] | 1 to 25%
24) O=C(CCN1C(=O)CSc2ccccc21)Nc1nnc(-c2ccccn2)[nH]1 | 25 to 50%
25) CNC(=O)CNc1nc(-c2ccccn2)nc2scc(-c3ccccc3)c12 | 25 to 50%
26) Fc1ccc(OCCSc2nnc(C3COc4ccccc4O3)o2)cc1 (centres unmarked) | 1 to 25%
27) O=C(CCN1C(=O)NC2(CCCCC2)C1=O)Nc1nnc(-c2ccccn2)[nH]1 | 1 to 25%
28) O=C(c1csc2c(O)nc(-c3ccccn3)nc12)N1CCN(c2ccccc2)CC1 [drawing 2680] | 76 to 100%
29) c1ccc(-c2csc3nc(-c4ccccn4)nc(NCCN4CCOCC4)c23)cc1 | 25 to 50%
30) O=C(CCNc1ncccn1)Nc1nnc(-c2ccccn2)[nH]1 | 25 to 50%
31) CCn1c(SCc2csc(-c3cccc(OC)c3OC)n2)nc2cc(S(N)(=O)=O)ccc21 | 25 to 50%
32) COCC(O)CN1CCC(Nc2nc(-c3ccccn3)nc3c2CCC3)CC1 (centres unmarked) | 25 to 50%
33) CN(C)S(=O)(=O)c1ccc(N2CCCC2)c(C(=O)NCCCN2CCCC2=O)c1 | 25 to 50%
34) CC(C1CC1)N(CC(F)(F)F)C(=O)Cc1ccc(Cl)cc1Cl (centres unmarked) | 25 to 50%
35) CC(c1ccccc1)N1CCN(C(=O)c2csc3c(O)nc(-c4ccccn4)nc23)CC1 (centres unmarked) [drawing 2804] | 51 to 75%
36) OC1CCC(Nc2nc(-c3ccccn3)nc3c2CCC3)CC1 (centres unmarked) | 25 to 50%
37) O=C(c1csc2c(O)nc(-c3ccccn3)nc12)N1CCOC(c2cccc(O)c2)C1 (centres unmarked) | 51 to 75%
38) CCOC(=O)NC1CCN(C(=O)c2csc3c(O)nc(N)nc23)CC1 [drawing 2667] | 1 to 25%
39) c1cc2c(cc1-c1csc(C3CC3)n1)CCC2 | 1 to 25%
40) O=C(CSCc1ccccn1)Nc1nnc(-c2ccccn2)[nH]1 | 25 to 50%
41) CC(C)Cc1cc(C(=O)Nc2cc(-c3cccnc3)n[nH]2)[nH]n1 | 1 to 25%

Data provenance: patent US10940139B2
